Tested on: Staphylococcus aureus
Test: Antibacterial activity against methicillin resistant Staphylococcus aureus USA300 FPR3757 assessed as inhibition of bacterial growth incubated for 20 to 24 hrs by microbroth serial dilution method
Type: functional
Conditions: time 20-24 hrs, read-out: MIC100
OBSERVATION TYPE: MIC (µg/mL)

compound=C=C[C@]1(C)C[C@@H](OC(=O)Cn2cc(-c3ccc(Cn4cnc(CO)c4)nc3)nn2)[C@]2(C)[C@H](C)CC[C@]3(CCC(=O)[C@H]32)[C@@H](C)[C@@H]1O data_value=2
compound=C=C[C@]1(C)C[C@@H](OC(=O)Cn2cc(-c3ccc(CNc4cc(N)ncn4)nc3)nn2)[C@]2(C)[C@H](C)CC[C@]3(CCC(=O)[C@H]32)[C@@H](C)[C@@H]1O data_value=0.06
compound="C=C[C@]1(C)C[C@@H](OC(=O)Cn2cc(-c3ccc(C(O)c4ccc5c(N)ncnn45)cn3)nn2)[C@]2(C)[C@H](C)CC[C@]3(CCC(=O)[C@H]32)[C@@H](C)[C@@H]1O (stereo partly drawn)" data_value=0.03
